Tested on: human erythrocytes
Experiment: Hemolysis assay
Conditions: human erythrocytes 0.25% (v/v), Tris buffer pH 7.6/DMSO, 37°C, 20 min, absorbance 540 nm, relative to Triton X-100; up to 100 µM peptide
Where a SMILES comes first, the peptide text is derived from it.
The compounds listed here are annotated with their HC10, concentration that induced 10% hemolysis.
Could you give me the number in µM? Just the number is fine.

CC[C@H](C)[C@H](NC(=O)[C@H](C)NC(=O)CNC(=O)[C@H](C)NC(=O)[C@H](CCCCN)NC(=O)[C@H](CO)NC(=O)[C@H](C)NC(=O)[C@H](CCSC)NC(=O)CN)C(=O)N[C@@H](C)C(=O)NCC(=O)N[C@@H](CCCCN)C(=O)N[C@H](C(=O)N[C@@H](C)C(=O)N[C@@H](CCCCN)C(=O)N[C@H](C(=O)N[C@@H](C)C(=O)N[C@@H](CC(C)C)C(=O)N[C@@H](CCCCN)C(=O)N[C@@H](C)C(=O)N[C@@H](CC(C)C)C(N)=O)C(C)C)[C@@H](C)CC [PGLa] (H-GMASKAGAIAGKIAKVALKAL-NH2) ... 16

Continue with the next compound.
Exercise: Provide only the value of recorded HC10, concentration that induced 10% hemolysis for CC(C)C[C@H](NC(=O)[C@H](C)NC(=O)[C@H](CCCCN)NC(=O)[C@H](CC(C)C)NC(=O)[C@H](C)NC(=O)[C@H](CC(C)C)NC(=O)[C@H](CCCCN)NC(=O)[C@H](CC(C)C)NC(=O)[C@H](C)NC(=O)[C@H](CC(C)C)NC(=O)[C@@H](N)CCCCN)C(=O)N[C@@H](CCCCN)C(=O)N[C@@H](C)C(=O)N[C@@H](C)C(=O)N[C@@H](CC(C)C)C(=O)N[C@@H](CCCCN)C(=O)N[C@@H](CC(C)C)C(=O)N[C@@H](C)C(N)=O [MAP]
Key: 2

###

Test system: human erythrocytes
Test: Hemolysis assay
Settings: overview Figure 5
Where a SMILES comes first, the peptide text is derived from it.
quantityMeasured: Hemolysis

N=C(N)NCCC[C@H](NC(=O)CN)C(=O)N[C@@H](CCCCN)C(=O)N[C@@H](CCCCN)C(=O)N[C@@H](CCCNC(=N)N)C(=O)N[C@@H](CCCNC(=N)N)C(=O)N[C@@H](CCC(N)=O)C(=O)N[C@@H](CCCNC(=N)N)C(=O)N[C@@H](CCCNC(=N)N)C(=O)N[C@@H](CCCNC(=N)N)C(=O)N1CCC[C@H]1C(=O)N1CCC[C@H]1C(=O)N[C@@H](CCC(N)=O)C(=O)O ... -
CC(C)C[C@H](NC(=O)[C@H](C)NC(=O)[C@H](CCCCN)NC(=O)[C@H](CC(C)C)NC(=O)[C@H](C)NC(=O)[C@H](CC(C)C)NC(=O)[C@H](CCCCN)NC(=O)[C@H](CC(C)C)NC(=O)[C@H](C)NC(=O)[C@H](CC(C)C)NC(=O)[C@@H](N)CCCCN)C(=O)N[C@@H](CCCCN)C(=O)N[C@@H](C)C(=O)N[C@@H](C)C(=O)N[C@@H](CC(C)C)C(=O)N[C@@H](CCCCN)C(=O)N[C@@H](CC(C)C)C(=O)N[C@@H](C)C(N)=O ... +++
CC[C@H](C)[C@H](NC(=O)[C@H](C)NC(=O)CNC(=O)[C@H](C)NC(=O)[C@H](CCCCN)NC(=O)[C@H](CO)NC(=O)[C@H](C)NC(=O)[C@H](CCSC)NC(=O)CN)C(=O)N[C@@H](C)C(=O)NCC(=O)N[C@@H](CCCCN)C(=O)N[C@H](C(=O)N[C@@H](C)C(=O)N[C@@H](CCCCN)C(=O)N[C@H](C(=O)N[C@@H](C)C(=O)N[C@@H](CC(C)C)C(=O)N[C@@H](CCCCN)C(=O)N[C@@H](C)C(=O)N[C@@H](CC(C)C)C(N)=O)C(C)C)[C@@H](C)CC [PGLa] (H-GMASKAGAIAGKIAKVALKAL-NH2) ... ++
CC[C@H](C)[C@H](NC(=O)[C@H](CCCCN)NC(=O)[C@H](CCCCN)NC(=O)[C@H](Cc1ccccc1)NC(=O)[C@H](CC(C)C)NC(=O)[C@H](CCCCN)NC(=O)[C@@H](N)CCCCN)C(=O)N[C@@H](CC(C)C)C(=O)N[C@@H](CCCCN)C(=O)N[C@@H](Cc1ccc(O)cc1)C(=O)N[C@@H](CC(C)C)C(N)=O ... ++
